Kd for assorted binders
Biological target: recombinant human PILRA (human, UniProt Q9UKJ1 20-197)
Sequence (Q9UKJ1 20-197 limits assumed): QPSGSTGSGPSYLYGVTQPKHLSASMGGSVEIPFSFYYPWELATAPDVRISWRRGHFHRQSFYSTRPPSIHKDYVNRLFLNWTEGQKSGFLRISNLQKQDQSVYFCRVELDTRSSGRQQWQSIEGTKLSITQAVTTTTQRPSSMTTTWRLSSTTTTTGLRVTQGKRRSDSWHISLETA
Test: SPR, Carterra LSA, antibody amine-coupled, kinetic fit

>  <BINDER>
X15 (antibody, human IgG4, V domains shown) VH: QVQLVQSGAEVKKPGSSVKVSCKASGYNFLHYDVNWVRQAPGQGLEWMGGIIPIFGTANYAQKFQGRVTITADESTSTAYMELSSLRSEDTAVYYCATAVGAGWFDTWGQGTLVTVSS VL: DIVMTQSPDSLAVSLGERATINCKSSQSVFFDVNNKNYLAWYQQKPGQPPKLLIYWASTRESGVPDRFSGSGSGTDFTLTISSLQAEDVAVYYCQQYFEEPYTFGQGTRLEIK

>  <Kd / nM>
0.1

$$$$
>  <BINDER>
X18 (antibody, human IgG4, V domains shown, conditioned media in the HEK293F assays) VH: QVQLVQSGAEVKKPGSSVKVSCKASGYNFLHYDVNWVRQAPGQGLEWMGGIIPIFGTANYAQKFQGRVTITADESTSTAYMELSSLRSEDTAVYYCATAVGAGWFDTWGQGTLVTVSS VL: DIVMTQSPDSLAVSLGERATINCKSSQSVWFDPNNKNYLAWYQQKPGQPPKLLIYWASTRESGVPDRFSGSGSGTDFTLTISSLQAEDVAVYYCQQYFEEPYTFGQGTRLEIK

>  <Kd / nM>
1.3

$$$$
>  <BINDER>
X5 (antibody, human IgG4, V domains shown) VH: QVQLVQSGAEVKKPGSSVKVSCKASGYNFLNYDVNWVRQAPGQGLEWMGGIIPIFGTANYAQKFQGRVTITADESTSTAYMELSSLRSEDTAVYYCATGVGAGWFDPWGQGTLVTVSS VL: DIVMTQSPDSLAVSLGERATINCKSSQSVFFDVNNKNYLAWYQQKPGQPPKLLIYWASTRESGVPDRFSGSGSGTDFTLTISSLQAEDVAVYYCQQYFEEPYTFGQGTRLEIK

>  <Kd / nM>
2.4

$$$$
>  <BINDER>
X19 (antibody, human IgG4, V domains shown) VH: QVQLVQSGAEVKKPGSSVKVSCKASGYNFLHYDVNWVRQAPGQGLEWMGGIIPIFGTANYAQKFQGRVTITADESTSTAYMELSSLRSEDTAVYYCATAVGAGWFDPWGQGTLVTVSS VL: DIVMTQSPDSLAVSLGERATINCKSSQSVFFDENNKNYLAWYQQKPGQPPKLLIYWASTRESGVPDRFSGSGSGTDFTLTISSLQAEDVAVYYCQQYYEEPYTFGQGTRLEIK

>  <Kd / nM>
0.3

$$$$
>  <BINDER>
X6 (antibody, human IgG4, V domains shown) VH: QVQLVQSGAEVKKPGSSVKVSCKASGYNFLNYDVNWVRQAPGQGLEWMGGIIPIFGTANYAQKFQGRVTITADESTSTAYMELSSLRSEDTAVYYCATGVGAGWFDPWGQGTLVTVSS VL: DIVMTQSPDSLAVSLGERATINCKSSQSVYFDVNNKNYLAWYQQKPGQPPKLLIYWASTRESGVPDRFSGSGSGTDFTLTISSLQAEDVAVYYCQQYFEEPYTFGQGTRLEIK

>  <Kd / nM>
3.1

$$$$
